- PROTOCOL DETAILS: Pseudomonas biofilm growth suppression – PAO1 strain, BacTiter-Glo luminescence, LB-PBS, primary screen (AID 1144)
- SETTINGS: P. aeruginosa PAO1 biofilm, 12 h, higher = more signal
Entries get a class label from measured z-score. See ranges: bucket A (below -0.9), bucket B (-0.9 to below 0.1), bucket C (0.1 or more)

Category lookup for the molecule CN1C2C=C(CCCO)C(C3C(=O)N(C(N)=O)C(=O)C32)C1C1CC1 (stereo not given) bucket C

Subsequent entry: Oc1ccc2cc[n+](Cc3cc4c(cc3Br)OCO4)cc2c1 bucket B

Subsequent entry: Cc1ccc(S[C@]2(C(=O)NCCN3CCOCC3)CC(=O)N(Cc3ccccc3Cl)[C@@H]2c2ccc(CO)cc2I)cc1 bucket B

Subsequent entry: COCC(=C=CC[C@H](O)c1ccc(OCCO)cc1)CCO bucket C

Subsequent entry: CCCC=C(CCC)[C@@H](NS(=O)(=O)c1ccc(C(F)(F)F)cc1)c1ccccc1 bucket B

Subsequent entry: CC(C)C(O)C1C=CC2C(=O)N(c3ccccc3)C(=O)C2N1Nc1ccccc1 (stereo not given) bucket A

Subsequent entry: C=CCC(OC(C)=O)[C@@H]1[C@@H](N(Cc2cccc3ccccc23)C(=O)Cc2ccc(F)cc2)c2cc(OCCCO)ccc2N1C(=O)c1ccc2ccccc2c1 (stereo not given in full) bucket A

Subsequent entry: COCCOC(=O)N1C(=O)[C@@]2(c3cc(C#CC4=CCCCC4)ccc31)[C@H](C(=O)Nc1nc3ccccc3s1)[C@H]1C(=O)O[C@H](c3ccccc3)[C@H](c3ccccc3)N1[C@@H]2c1ccc(O)cc1 bucket C

Subsequent entry: NC(=O)[C@@]1(Cc2ccccc2)COC(c2ccc(OCCCO)cc2)=N1 bucket C

Subsequent entry: CC(=O)NCCCC[C@@H]1NC(=O)[C@@H]2C[C@H](C(=O)NCCCCCN)[C@H](c3cccc(OCCO)c3)N2C1=O bucket A

---

- PROTOCOL DETAILS: probe aEGFR binding to arrayed compounds – biochemical, biotinylated probe, 635/667 nm fluorescence, primary screen (AID 1097);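 also: probe is a biotinylated anti-EGFR antibody binding compounds printed on slides; score combines fluorescence near 667 nm and signal to noise of each spot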
- SETTINGS: small-molecule microarray, higher = more signal
MEASURE: composite z-score
Give the figure only, with no unit attached.

Quick check: composite z-score of COCC(=C=CC[C@H](O)c1ccc(OCCO)cc1)CCO ? 0.0882

Subsequent entry: C[N+](C)(C)CCCC[C@@H]1NC(=O)[C@@H]2C[C@H](C(=O)NCCCCCCN)[C@H](c3cccc(OCCO)c3)N2C1=O 0.617

Subsequent entry: O=C1N(CCS(=O)(=O)c2ccccc2)c2ccccc2[C@H]2OC(c3ccc(OCCCO)cc3)=N[C@@]12Cc1ccccc1 0.263

Subsequent entry: COCCOC(=O)N1C(=O)[C@@]2(c3cc(C#CCCO)ccc31)[C@H](c1ccc(OCCO)cc1)N1[C@H](c3ccccc3)[C@H](c3ccccc3)OC(=O)[C@H]1[C@@H]2C(=O)Nc1nc2ccccc2s1 0.197

Subsequent entry: NC(=O)NCC#Cc1ccc2c(c1)[C@]1(C(=O)N2)[C@H](c2ccccc2OCCO)N2[C@H](c3ccccc3)[C@H](c3ccccc3)OC(=O)[C@H]2[C@@H]1C(=O)NC[C@H](O)c1ccccc1 -0.162

Subsequent entry: O=C1NC(=O)C2C1C=CC(C(O)c1ccco1)N2Nc1ccc(Cl)cc1Cl (stereo not given) -0.0362

Subsequent entry: CCCCC(CC)C(O)C1C=CC2C(=O)N(c3ccccc3)C(=O)C2N1Nc1ccc(C#N)cc1 (stereo not given) 0.338

Subsequent entry: CC(C)C[C@@H]1NC(=O)[C@@H]2C[C@H](C(=O)NCCCCCCN)[C@H](c3cccc(OCCO)c3)N2C1=O 0.0499

Subsequent entry: O[C@@H](Cc1ccccc1)[C@@H](/C=C/C1CC1)N(CC#Cc1ccccc1)Cc1ccccc1Br -0.339

Subsequent entry: CCCCCN1CC=CC23O[C@@H]4/C=C\CCC(C)OC(=O)C4[C@H]2C(=O)N(C(CO)C(C)C)[C@@H]3C1=O (stereo not given in full) -0.14

Subsequent entry: COc1cc2c(cc1O)C(c1ccc(CN3CCCC3)cc1)N(Cc1cc3c(cc1Br)OCO3)CC2 (stereo not given) -0.176

Subsequent entry: CCN(CC)c1ccc(N2CC=CC34O[C@@H]5/C=C\CCCOC(=O)C5[C@H]3C(=O)N(C(C)CO)[C@@H]4C2=O)cc1 (stereo not given in full) -0.189

Subsequent entry: CO[C@H]1O[C@H](CO)[C@@H](OC(=O)Nc2ccc3c(c2)OCO3)[C@H](OC(=O)Nc2ccc3c(c2)OCO3)[C@@H]1OC(=O)Nc1ccc2c(c1)OCO2 -0.039

Subsequent entry: CN(C)C(=O)[C@@]1(Cc2ccccc2)N=C(c2ccc(OCCCO)cc2)O[C@H]1c1ccccc1 0.642

Subsequent entry: CCCC=C(CCC)[C@@H](NS(=O)(=O)CC12CCC(CC1=O)C2(C)C)c1ccc(C(=O)OC)cc1 (stereo not given in full) 0.471

---

- PROTOCOL DETAILS: compound effects on multiple myeloma cell viability – MM1S, calcein-AM fluorescence, 48 h, basal, profiling panel (AID 1165);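 also: viability of MM1S multiple myeloma cells under basal unstimulated conditions; test concentration not given here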
- SETTINGS: higher = more signal
z-score below -0.6 gives Not satisfied; z-score at or above it gives Satisfied.

Form field: z-score at least -0.6? Entry: CCCN1C(=O)[C@]2(Cc3ccccc31)N=C(c1ccc(OCCCO)cc1)O[C@@H]2c1ccccc1 Not satisfied

Subsequent entry: COc1cccc(C)c1NC(=O)O[C@H]1[C@H](OC(=O)Nc2ccc3c(c2)OCO3)[C@@H](OC(=O)Nc2ccc3c(c2)OCO3)[C@@H](OC)O[C@@H]1CO Not satisfied

Subsequent entry: CC(=O)NCCCC[C@@H]1NC(=O)[C@@H]2C[C@H](C(=O)NCCCCCN)[C@H](c3cccc(OCCO)c3)N2C1=O Satisfied

Subsequent entry: COCCOC(=O)N1C(=O)[C@@]2(c3ccccc31)[C@H](c1ccc(O)cc1)N1[C@H](c3ccccc3)[C@H](c3ccccc3)OC(=O)[C@H]1[C@@H]2C(=O)N1CCN(c2ncccn2)CC1 Not satisfied

Subsequent entry: CC(C)=C1C(=O)C(c2ccccc2)=C2CN3C(=O)N(CCc4ccccc4)C(=O)[C@]3(Cc3ccc(C(F)(F)F)cc3)[C@H]21 Not satisfied

Subsequent entry: [N-]=[N+]=Nc1ccccc1C[C@@]1(C(=O)N2CCOCC2)N=C(c2ccc(OCCCO)cc2)O[C@@H]1c1ccccc1 Not satisfied

Subsequent entry: COCCCNC(=O)[C@@]1(Sc2ccc(C)cc2)CC(=O)N(C2Cc3ccccc3C2)[C@@H]1c1ccc(CO)cc1 Satisfied

---

- PROTOCOL DETAILS: budding yeast growth changes without added modifier – OD600, strain BY4716, 24 h, basal condition, primary screen (AID 1173)
- SETTINGS: S. cerevisiae BY4716 growth, OD600, 24 h; higher = more signal, called active from +8 up or from −8 down
Kindly supply the reported z-score values for the records listed here.
Give the figure only, with no unit attached.

Quick check: z-score of Cn1cccc1C(O)C1C=CC2C(=O)N(c3ccccc3)C(=O)C2N1Nc1ccccc1 (configuration not stated) ? 0.917

Subsequent entry: CCCNC(=O)[C@@]1(C)c2ccccc2C(=O)N(c2ccc(C)cn2)[C@H]1c1ccc(CO)cc1 -0.397

Subsequent entry: CCCC[C@@H](O)C1=C(COC)C[C@H]2C(=O)N(C)C(=O)[C@H]2[C@H]1CO -3.7

Subsequent entry: CCOC(=O)C[C@H]1[C@H](OC(=O)c2ccc(C(=O)c3ccccc3)cc2)[C@@H](NC(=O)C2CCCCC2)c2cc(OCCCO)ccc2N1C(=O)c1ccc2ccccc2n1 -0.108

Subsequent entry: O=C(NCCN1CCOCC1)[C@@H]1c2ccccc2C(=O)N(C2Cc3ccccc3C2)[C@H]1c1ccc(CO)cc1 -0.633

Subsequent entry: CC(C)C(O)C1C=CC2C(=O)N(c3ccccc3)C(=O)C2N1Nc1ccccc1 (configuration not stated) -2.05

Subsequent entry: CCCCC=C[C@@H](NC(=O)OCc1ccccc1Cl)c1ccccc1 1.33

Subsequent entry: CCCCCCCCCC(O)C1C=CC2C(=O)N(c3ccccc3)C(=O)C2N1Nc1cc(OC)c(OC)c(OC)c1 (configuration not stated) 0.953

Subsequent entry: COCCOC(=O)N1C(=O)[C@@]2(c3cc(C#CC4=CCCCC4)ccc31)[C@H](C(=O)Nc1nc3ccccc3s1)[C@H]1C(=O)O[C@H](c3ccccc3)[C@H](c3ccccc3)N1[C@@H]2c1ccc(O)cc1 -0.344

Subsequent entry: COC(=O)[C@@]1(Cc2ccc(OC)cc2)[C@H]2c3cc(C(=O)N4CCCC4)n(CCc4c[nH]c5ccc(OC)cc45)c3C[C@H]2CN1C(=O)c1ccccc1 1.26

Subsequent entry: C=CCOC(=O)[C@@]1(Cc2ccccc2)C[C@H]2CO[C@H](c3ccc(OC)cc3)N2C1=O -2.69

Subsequent entry: C=CC[C@]1(C(=O)N2CCCCC2)N=C(c2ccc(OCCCO)cc2)O[C@H]1c1ccccc1CN=[N+]=[N-] -1.03

Subsequent entry: COC(=O)C1=CC(CCCO)=CC(c2cccs2)N(C)C=C1C(=O)OC (configuration not stated) 0.856

Subsequent entry: COCC(=C=CC[C@H](O)c1ccc(OCCO)cc1)CCO -0.415

Subsequent entry: C#CCN(Cc1ccccc1Br)[C@H](/C=C/c1ccccc1)[C@@H](O)Cc1ccccc1 0.31

Subsequent entry: COC(=O)C1(CC(C)C)C=C2C(=C(c3ccccc3)C(=O)C2C)CN1 (configuration not stated) 0.397

Subsequent entry: O=C1OCCC=C[C@H]2OC34C=CCN(Cn5nnc6ccccc65)C(=O)[C@H]3N(CCCO)C(=O)[C@@H]4C12 (some centres not stated) -0.63
